target: Flag/GST-tagged recombinant human B-Raf (Homo sapiens, UniProt P15056); construct: Flag; GST; E. coli (Mek-1-GST); assay: B-Raf Kinase to MEK1 ELISA; details: phosphorylation of GST-MEK1 (50 nM final), phospho-MEK1 antibody/Europium readout; 60 minutes at RT
Sequence (P15056 whole entry): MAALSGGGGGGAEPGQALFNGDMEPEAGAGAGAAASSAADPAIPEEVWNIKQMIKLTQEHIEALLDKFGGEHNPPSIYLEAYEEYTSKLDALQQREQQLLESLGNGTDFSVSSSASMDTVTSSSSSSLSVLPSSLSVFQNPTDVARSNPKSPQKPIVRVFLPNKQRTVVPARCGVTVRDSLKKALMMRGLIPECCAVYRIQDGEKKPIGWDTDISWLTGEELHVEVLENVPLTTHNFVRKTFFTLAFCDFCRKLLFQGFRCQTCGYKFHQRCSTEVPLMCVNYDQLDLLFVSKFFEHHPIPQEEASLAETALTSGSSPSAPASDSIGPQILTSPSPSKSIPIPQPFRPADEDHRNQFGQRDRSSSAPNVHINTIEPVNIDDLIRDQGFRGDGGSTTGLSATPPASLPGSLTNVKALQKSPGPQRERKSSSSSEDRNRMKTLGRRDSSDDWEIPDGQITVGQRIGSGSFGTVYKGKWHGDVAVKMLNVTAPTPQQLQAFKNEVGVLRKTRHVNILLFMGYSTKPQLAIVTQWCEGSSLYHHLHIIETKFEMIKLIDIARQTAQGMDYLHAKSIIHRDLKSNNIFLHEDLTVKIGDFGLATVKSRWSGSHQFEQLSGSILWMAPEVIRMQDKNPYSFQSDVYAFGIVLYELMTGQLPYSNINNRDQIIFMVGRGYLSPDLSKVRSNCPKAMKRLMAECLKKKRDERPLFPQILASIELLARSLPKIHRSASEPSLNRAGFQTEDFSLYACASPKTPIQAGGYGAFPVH
MEASUREMENT_LABEL: IC50 (nM)

Here is how some compounds turned out for IC50.
COC(=O)N1CC=C(c2cccc(NC(=O)c3cccc(C(F)(F)F)c3)c2)n2nccc21 : 163
CC(C)(C)OC(=O)N1CC=C(c2cccc(NC(=O)c3cccc(C(F)(F)F)c3)c2)n2nccc21 : 815
CC(=O)NCCC(=O)N1CC=C(c2cccc(NC(=O)c3cccc(C(F)(F)F)c3)c2)n2nccc21 : 716
CS(=O)(=O)N1CC=C(c2cccc(NC(=O)c3cccc(C(F)(F)F)c3)c2)n2nccc21 : 683
O=C(Nc1ccc(Cl)c(C2=CCNc3ccnn32)c1)c1cccc(C(F)(F)F)c1 : 161
CCOC(=O)N1CC=C(c2cccc(NC(=O)c3cccc(C(F)(F)F)c3)c2)n2nccc21 : 370

1. CC(=O)NCC(=O)N1CC=C(c2cccc(NC(=O)c3cccc(C(F)(F)F)c3)c2)n2nccc21
2. CC(C)(C)OC(=O)NCCC(=O)N1CC=C(c2cccc(NC(=O)c3cccc(C(F)(F)F)c3)c2)n2nccc21
3. CCOC(=O)c1cnn2c1N(C(=O)OC)CC=C2c1cccc(NC(=O)c2cccc(C(F)(F)F)c2)c1
4. CC#CCN1CC=C(c2cccc(NC(=O)c3cccc(C(F)(F)F)c3)c2)n2nccc21
5. CCOC(=O)c1cnn2c1N(C(C)=O)CC=C2c1cccc(NC(=O)c2cccc(C(F)(F)F)c2)c1
Thanks in advance: please rank these 5 entries by IC50, highest to lowest. Order the labels as requested and give them as your answer. 1, 4, 5, 2, 3
